This section presents binders with their documented cell scattering score, MLP29, 3.000 nM values.
# ASSAY_SYSTEM: native mouse MET on living mouse cells (mouse, UniProt P16056 25-1379)
# ASSAY_TEXT: cell-based or functional assay
// return numeric value only (unit: score 0-4, not printed)

BINDER: chimeric llama-human IgG1 mAb 71D6 (antibody, V domains shown) VH: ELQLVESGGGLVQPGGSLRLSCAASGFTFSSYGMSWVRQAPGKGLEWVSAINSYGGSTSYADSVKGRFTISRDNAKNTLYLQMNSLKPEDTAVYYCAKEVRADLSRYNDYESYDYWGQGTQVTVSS VL: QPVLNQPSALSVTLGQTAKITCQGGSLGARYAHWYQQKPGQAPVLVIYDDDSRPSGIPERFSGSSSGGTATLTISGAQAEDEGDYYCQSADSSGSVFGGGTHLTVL
MEASURE_UNIT: score 0-4
MEASURED_NUMBER: 4

Entry chimeric llama-human IgG1 mAb 71G12 (antibody, V domains shown) VH: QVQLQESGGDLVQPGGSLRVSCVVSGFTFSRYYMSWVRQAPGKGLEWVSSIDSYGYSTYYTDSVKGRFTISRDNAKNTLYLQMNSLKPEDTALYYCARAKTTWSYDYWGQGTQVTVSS VL: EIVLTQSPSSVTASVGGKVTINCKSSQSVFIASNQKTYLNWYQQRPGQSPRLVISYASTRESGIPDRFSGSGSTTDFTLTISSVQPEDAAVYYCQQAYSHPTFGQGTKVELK — recorded cell scattering score, MLP29, 3.000 nM = 2

The reported cell scattering score, MLP29, 3.000 nM of the binder chimeric llama-human IgG1 mAb 76G7 (antibody, V domains shown) VH: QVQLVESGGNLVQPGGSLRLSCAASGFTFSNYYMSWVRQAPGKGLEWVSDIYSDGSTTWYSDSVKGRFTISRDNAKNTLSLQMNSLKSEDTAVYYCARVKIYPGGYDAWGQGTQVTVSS VL: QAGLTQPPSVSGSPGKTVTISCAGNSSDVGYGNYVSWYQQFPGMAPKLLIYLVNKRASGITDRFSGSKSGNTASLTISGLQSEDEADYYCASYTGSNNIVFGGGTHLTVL was 2
